# tested-system: CFTR (Homo sapiens, UniProt P13569, DEL508-508)
# Construct: endogenous in cells; host or cells: primary human bronchial epithelial cells from CF subjects (F508del/MF-HBE), differentiated at air-liquid interface
# Sequence (P13569 with tags, fused parts or gaps DEL508-508): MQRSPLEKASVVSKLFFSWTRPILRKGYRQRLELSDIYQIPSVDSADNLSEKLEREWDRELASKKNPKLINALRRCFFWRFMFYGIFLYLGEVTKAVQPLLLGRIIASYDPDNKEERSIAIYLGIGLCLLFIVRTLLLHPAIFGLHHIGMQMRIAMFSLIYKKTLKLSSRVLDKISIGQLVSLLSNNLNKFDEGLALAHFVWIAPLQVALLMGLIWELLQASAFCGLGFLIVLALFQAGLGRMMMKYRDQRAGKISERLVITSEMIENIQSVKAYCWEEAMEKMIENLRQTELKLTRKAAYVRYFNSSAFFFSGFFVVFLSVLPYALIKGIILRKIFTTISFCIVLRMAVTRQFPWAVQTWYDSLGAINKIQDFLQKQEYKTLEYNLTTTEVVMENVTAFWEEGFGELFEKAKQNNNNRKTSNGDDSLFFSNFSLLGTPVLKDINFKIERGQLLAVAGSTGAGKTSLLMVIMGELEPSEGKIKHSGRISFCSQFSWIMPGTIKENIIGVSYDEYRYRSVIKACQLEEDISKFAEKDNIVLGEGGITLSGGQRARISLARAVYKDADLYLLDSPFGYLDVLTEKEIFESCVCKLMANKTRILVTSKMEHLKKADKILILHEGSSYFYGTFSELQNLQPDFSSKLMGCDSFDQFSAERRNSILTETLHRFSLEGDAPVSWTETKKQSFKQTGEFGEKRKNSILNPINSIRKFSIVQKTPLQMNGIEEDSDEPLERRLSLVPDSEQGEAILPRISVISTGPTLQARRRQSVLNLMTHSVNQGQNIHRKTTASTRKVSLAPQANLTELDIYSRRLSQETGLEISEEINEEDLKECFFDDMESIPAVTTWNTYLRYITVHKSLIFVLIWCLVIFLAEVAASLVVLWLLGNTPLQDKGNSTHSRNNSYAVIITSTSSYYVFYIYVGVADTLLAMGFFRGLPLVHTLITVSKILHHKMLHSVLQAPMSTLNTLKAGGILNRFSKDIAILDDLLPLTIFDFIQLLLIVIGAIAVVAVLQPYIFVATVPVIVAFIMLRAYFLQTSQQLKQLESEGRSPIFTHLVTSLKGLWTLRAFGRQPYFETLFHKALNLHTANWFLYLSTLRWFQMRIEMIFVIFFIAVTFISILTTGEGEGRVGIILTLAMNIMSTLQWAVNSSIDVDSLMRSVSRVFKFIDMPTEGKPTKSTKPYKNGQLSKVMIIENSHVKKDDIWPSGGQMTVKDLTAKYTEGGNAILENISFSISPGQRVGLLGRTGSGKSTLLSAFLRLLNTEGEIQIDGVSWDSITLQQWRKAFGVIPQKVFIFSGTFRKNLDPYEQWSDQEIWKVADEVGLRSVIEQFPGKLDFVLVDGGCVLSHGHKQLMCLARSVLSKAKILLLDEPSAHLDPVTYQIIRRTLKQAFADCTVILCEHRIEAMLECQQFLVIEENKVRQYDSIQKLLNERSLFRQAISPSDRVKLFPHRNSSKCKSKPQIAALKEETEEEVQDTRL
# experiment-summary: HBE2 assay: Ussing chamber assay of CFTR-mediated short-circuit currents
# Type: cell-based
# condition-description: 3 μM; F508del/MF-HBE cells; with 44 nM potentiator; 18-24 hours; 20% human serum
readout-type: HBE2 Activity at 3 μM (%)

Cc1cccc(C)c1-c1cc2nc(n1)NS(=O)(=O)c1cccc(c1)C(=O)N(Cc1cncc(N(C)[C@@H]3C[C@H]4COC[C@H]43)n1)[C@H](CC(C)(C)C)CO2 (stereo in doubt) [Compound 1677] : +++ (+++ is >60+)
Cc1cccc(C)c1-c1cc2nc(n1)NS(=O)(=O)c1cccc(c1)C(=O)N(Cc1cncc(N3CCC4OCCC43)n1)[C@H](CC(C)(C)C)CO2 (stereo partly drawn) [Compound 1643] : +++ (+++ is >60+)
COc1cc(CN2C(=O)c3cccc(c3)S(=O)(=O)Nc3nc(cc(-c4c(C)cccc4C)n3)OC[C@H]2CC(C)(C)C)nc(N(C)C2CCC2)c1 [Compound 1700] : +++ (+++ is >60+)

----------
# tested-system: CFTR (Homo sapiens, UniProt P13569, DEL508-508)
# Construct: endogenous in cells; host or cells: primary human bronchial epithelial cells from CF subjects (F508del/MF-HBE), differentiated at air-liquid interface
# experiment-summary: HBE assay: Ussing chamber assay of CFTR-mediated short-circuit currents
# Format: cell-based
# condition-description: Table 11; read-out: HBE EC50
readout-type: EC50

Name the recorded EC50 for Cc1cccc(C)c1-c1cc2nc(n1)NS(=O)(=O)c1cccc(c1)C(=O)N(Cc1nccc(N(C)C3CC4(CC4)C3)n1)[C@H](CC(C)(C)C)CO2 .
< 1000 nM

Try this compound too: Cc1cccc(C)c1-c1cc2nc(n1)NS(=O)(=O)c1cccc(c1)C(=O)N(Cc1ncc(C3CCOCC3)cn1)[C@H](CC(C)(C)C)CO2
< 1000 nM

Try this compound too: Cc1cccc(C)c1-c1cc2nc(n1)NS(=O)(=O)c1cccc(c1)C(=O)N(Cc1cnc(C3CCCCC3)cn1)[C@H](CC(C)(C)C)CO2
1000 to 3000 nM

Try this compound too: Cc1cccc(C)c1-c1cc2nc(n1)NS(=O)(=O)c1cccc(c1)C(=O)N(Cc1ncc(C3CCC3)cn1)[C@H](CC(C)(C)C)CO2
3000 to 30000 nM

Try this compound too: Cc1cccc(C)c1-c1cc2nc(n1)NS(=O)(=O)c1cccc(c1)C(=O)N(CC1CCCN(CCC(C)(C)C)C1=O)[C@H](CC(C)(C)C)CO2 (stereo partly drawn) [Compound 655]
< 1000 nM

Try this compound too: Cc1cccc(C)c1-c1cc2nc(n1)NS(=O)(=O)c1cccc(c1)C(=O)N(Cc1ncc(N3CCC(C)(C)C3)cn1)[C@H](CC(C)(C)C)CO2
1000 to 3000 nM

----------
# tested-system: CFTR (Homo sapiens, UniProt P13569)
# Sequence (P13569 with tags, fused parts or gaps DEL508-508): as above
# experiment-summary: Membrane potential dye, Enteroid Assay B
# Type: cell-based
# condition-description: Table 8; chloride transport as % of triple combination control (Enteroid Assay B)
readout-type: Ent. B Max Activity

Below, each entry is followed by its recorded Ent. B Max Activity result.
Cc1cccc(C)c1-c1cc2nc(n1)NS(=O)(=O)c1cccc(c1)C(=O)N(CCC(C)(C)C(C)(C)O)[C@H](CC(C)(C)C)CO2 : +++ (+++ is >60%)
Cc1cccc(C)c1-c1cc2nc(n1)NS(=O)(=O)c1cc(nn1C)C(=O)N(Cc1cccnc1)[C@H](CC(C)(C)C)CO2 : + (+ is <30%)
Cc1cccc(C)c1-c1cc2nc(n1)NS(=O)(=O)c1cccc(c1)C(=O)N(Cc1cccc(NC(=O)OC(C)C)c1)[C@H](CC(C)(C)C)CO2 : +++ (+++ is >60%)
COc1cnc(CN2C(=O)c3cccc(c3)S(=O)(=O)Nc3nc(cc(-c4c(C)cccc4C)n3)OC[C@H]2CC(C)(C)C)cn1 : +++ (+++ is >60%)
CNC(=O)CCCN1C(=O)c2cccc(c2)S(=O)(=O)Nc2nc(cc(-c3c(C)cccc3C)n2)OC[C@H]1CC(C)C : +++ (+++ is >60%)
Cc1cccc(C)c1-c1cc2nc(n1)NS(=O)(=O)c1cccc(c1)C(=O)N(CCCC(C)(C)O)[C@H](CC(C)(C)O)CO2 : + (+ is <30%)

We now examine a further molecule.
Name the recorded Ent. B Max Activity for Cc1cccc(C)c1-c1cc2nc(n1)NS(=O)(=O)c1cc(nn1C)C(=O)N(Cc1ccncn1)[C@H](CC(C)(C)C)CO2 .
+ (+ is <30%)
